Documented normalized growth across a set of compounds
Experiment: chemical genetic growth profiling, strain panel (AID 1159580);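 note: tested at 20 µM; growth read once vehicle control cultures reached saturation at 30 °C; 1 = growth at the plate median or of vehicle wells; lower values mean less growth of the strain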
Conditions: S. cerevisiae deletion strains, growth OD, locus YOR061W, strain CKA2, stronger effect = lower value
Screen size: about 5,500 compounds; about 2,000 (36%) were called active. Roughly 18% stayed inconclusive and do not appear here. The list shows a part of the results.
Metric Name: normalized growth

[[record]]
compound = "COC(=O)/C(C)=C\\CC12OC(C)(C)C3CC(C=C4C(=O)c5c(OC)c6c(c(CC=C(C)C)c5OC431)OC(C)(CCC=C(C)C)C=C6)C2=O (centres undefined)"
metric_name = "normalized growth"
result_value = "0.984 (inactive)"

[[record]]
compound = "Clc1ccc(CSc2nccn2-c2cc(Cl)ccc2Cl)cc1"
metric_name = "normalized growth"
result_value = "0.817 (inactive)"

[[record]]
compound = "N#Cc1ccc(Oc2sccc2[N+](=O)[O-])cc1"
metric_name = "normalized growth"
result_value = "0.886 (inactive)"

[[record]]
compound = "CC(=O)OC1CC(OC(C)=O)C2(C)C(CC(OC(C)=O)C3(C)C2CCC2(C)C(c4ccoc4)OC(=O)C4OC423)C1(C)C (centres undefined)"
metric_name = "normalized growth"
result_value = "0.994 (inactive)"


Value source: PubChem BioAssay AID1159580
